Hello, the source for this data is patent US10280170B2, in case you need it.

Study target: Ros1 enzyme (Homo sapiens, UniProt P08922)
Construct: 0.5 μg/ml Ros1 enzyme
Sequence (P08922 28-2347): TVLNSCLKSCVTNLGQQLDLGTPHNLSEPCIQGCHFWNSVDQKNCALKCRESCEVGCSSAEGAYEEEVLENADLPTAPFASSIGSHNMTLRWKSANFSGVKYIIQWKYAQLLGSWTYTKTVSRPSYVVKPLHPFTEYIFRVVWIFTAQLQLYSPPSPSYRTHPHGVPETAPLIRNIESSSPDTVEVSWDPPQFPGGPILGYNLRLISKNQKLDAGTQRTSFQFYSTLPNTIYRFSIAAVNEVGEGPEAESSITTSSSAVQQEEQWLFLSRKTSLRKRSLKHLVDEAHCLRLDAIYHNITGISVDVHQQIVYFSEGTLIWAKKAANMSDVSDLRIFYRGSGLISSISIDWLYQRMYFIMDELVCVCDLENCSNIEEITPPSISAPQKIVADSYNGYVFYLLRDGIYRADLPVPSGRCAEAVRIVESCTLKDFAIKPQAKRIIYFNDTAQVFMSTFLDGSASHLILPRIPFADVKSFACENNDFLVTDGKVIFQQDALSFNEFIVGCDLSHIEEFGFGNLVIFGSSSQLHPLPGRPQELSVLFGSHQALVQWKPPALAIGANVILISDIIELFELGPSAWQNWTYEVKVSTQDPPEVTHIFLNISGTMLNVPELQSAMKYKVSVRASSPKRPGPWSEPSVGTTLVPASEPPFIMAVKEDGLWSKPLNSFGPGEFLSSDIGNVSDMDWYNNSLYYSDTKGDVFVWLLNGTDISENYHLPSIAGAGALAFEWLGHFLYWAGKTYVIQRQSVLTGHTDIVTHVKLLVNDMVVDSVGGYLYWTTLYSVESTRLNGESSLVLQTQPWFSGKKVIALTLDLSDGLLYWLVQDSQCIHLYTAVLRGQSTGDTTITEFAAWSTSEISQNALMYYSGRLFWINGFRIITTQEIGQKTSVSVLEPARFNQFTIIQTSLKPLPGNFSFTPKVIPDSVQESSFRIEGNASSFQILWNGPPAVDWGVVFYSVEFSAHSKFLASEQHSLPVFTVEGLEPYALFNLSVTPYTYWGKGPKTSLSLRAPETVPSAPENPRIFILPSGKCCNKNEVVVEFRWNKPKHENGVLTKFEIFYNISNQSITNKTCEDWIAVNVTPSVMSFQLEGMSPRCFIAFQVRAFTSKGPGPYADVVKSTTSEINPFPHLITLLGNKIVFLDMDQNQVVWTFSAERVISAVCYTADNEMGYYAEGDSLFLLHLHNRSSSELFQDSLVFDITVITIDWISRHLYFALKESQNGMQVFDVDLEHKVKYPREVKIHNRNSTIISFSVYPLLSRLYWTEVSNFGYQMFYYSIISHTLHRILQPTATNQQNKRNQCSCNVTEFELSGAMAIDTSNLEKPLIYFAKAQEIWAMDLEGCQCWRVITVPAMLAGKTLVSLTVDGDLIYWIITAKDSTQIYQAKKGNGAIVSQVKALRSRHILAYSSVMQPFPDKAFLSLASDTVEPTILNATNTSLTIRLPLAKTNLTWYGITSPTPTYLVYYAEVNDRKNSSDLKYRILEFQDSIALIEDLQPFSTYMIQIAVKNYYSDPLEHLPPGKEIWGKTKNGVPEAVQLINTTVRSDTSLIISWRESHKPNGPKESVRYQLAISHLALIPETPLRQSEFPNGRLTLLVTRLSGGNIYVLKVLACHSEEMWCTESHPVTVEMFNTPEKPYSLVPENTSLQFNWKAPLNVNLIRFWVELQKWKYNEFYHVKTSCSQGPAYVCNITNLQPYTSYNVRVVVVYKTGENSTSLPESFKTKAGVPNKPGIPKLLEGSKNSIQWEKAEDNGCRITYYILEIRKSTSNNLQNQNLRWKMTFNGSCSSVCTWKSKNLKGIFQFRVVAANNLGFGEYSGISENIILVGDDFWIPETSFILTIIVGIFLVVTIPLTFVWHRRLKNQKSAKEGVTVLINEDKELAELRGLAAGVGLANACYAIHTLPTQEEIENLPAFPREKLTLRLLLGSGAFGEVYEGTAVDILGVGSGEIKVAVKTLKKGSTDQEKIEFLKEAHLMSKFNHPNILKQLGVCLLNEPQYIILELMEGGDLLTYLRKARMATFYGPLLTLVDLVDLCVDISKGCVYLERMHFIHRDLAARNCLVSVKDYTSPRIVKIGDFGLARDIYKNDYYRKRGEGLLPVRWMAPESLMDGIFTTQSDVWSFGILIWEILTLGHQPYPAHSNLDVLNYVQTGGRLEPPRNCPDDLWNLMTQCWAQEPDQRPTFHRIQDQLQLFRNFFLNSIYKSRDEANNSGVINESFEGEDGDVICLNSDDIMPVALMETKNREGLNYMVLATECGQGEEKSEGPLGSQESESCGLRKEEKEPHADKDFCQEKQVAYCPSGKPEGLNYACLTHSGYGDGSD
Assay summary: Ros1 enzymatic assay
Assay type: biochemical
Applied conditions: Ros1 enzymatic assay
Parameter: ROS1 pIC50. Scope: all listed entries.
// response body must contain only the number

Example results:
>>> quantitative_result("CC(C)c1cc(F)c(COc2ccc(-c3c(-c4ccncc4)nn4c3C(=O)N(CC(O)CO)CC4)cc2)c(F)c1 (centres unmarked) [Compound 96]")
6.8
>>> quantitative_result("CC(C)c1ccc(COc2ccc(-c3c(-c4ccncc4)nn4c3C(=O)N(CC(O)CO)CC4)c(F)c2)cc1 (centres unmarked) [Compound 22]")
7.9
>>> quantitative_result("CC(C)c1ccc(COc2ccc(-c3c(-c4ccncc4)nn4c3C(=O)N(CCN)CC4)cc2)cc1 [Compound 59a]")
7.2
>>> quantitative_result("CC(O)CN1CCn2nc(-c3ccncc3)c(-c3ccc(OCc4ccc(C(C)C)cc4)cc3)c2C1=O (centres unmarked) [Compound 46]")
7.3

Next, consider the following molecule.
Record summary for CC(O)CN1CCn2nc(-c3ccncc3)c(-c3ccc(OCc4ccc(C(C)C)cc4)cc3)c2C1 (centres unmarked) [Compound 192] : reported ROS1 pIC50 = 6.8

###

Parameter: BaF3-ROS1-IL3 pIC50. Scope: all listed entries.
Study target: Ba/F3 cells containing Ros1 wild-type protein (Homo sapiens, UniProt P08922, cells depend on it, form not given)
Construct: The background only speaks of 'a number of different unrelated proteins' and names SLC34A2-ROS1 for HCC78 cells
Sequence (P08922 whole entry, stated change not applied): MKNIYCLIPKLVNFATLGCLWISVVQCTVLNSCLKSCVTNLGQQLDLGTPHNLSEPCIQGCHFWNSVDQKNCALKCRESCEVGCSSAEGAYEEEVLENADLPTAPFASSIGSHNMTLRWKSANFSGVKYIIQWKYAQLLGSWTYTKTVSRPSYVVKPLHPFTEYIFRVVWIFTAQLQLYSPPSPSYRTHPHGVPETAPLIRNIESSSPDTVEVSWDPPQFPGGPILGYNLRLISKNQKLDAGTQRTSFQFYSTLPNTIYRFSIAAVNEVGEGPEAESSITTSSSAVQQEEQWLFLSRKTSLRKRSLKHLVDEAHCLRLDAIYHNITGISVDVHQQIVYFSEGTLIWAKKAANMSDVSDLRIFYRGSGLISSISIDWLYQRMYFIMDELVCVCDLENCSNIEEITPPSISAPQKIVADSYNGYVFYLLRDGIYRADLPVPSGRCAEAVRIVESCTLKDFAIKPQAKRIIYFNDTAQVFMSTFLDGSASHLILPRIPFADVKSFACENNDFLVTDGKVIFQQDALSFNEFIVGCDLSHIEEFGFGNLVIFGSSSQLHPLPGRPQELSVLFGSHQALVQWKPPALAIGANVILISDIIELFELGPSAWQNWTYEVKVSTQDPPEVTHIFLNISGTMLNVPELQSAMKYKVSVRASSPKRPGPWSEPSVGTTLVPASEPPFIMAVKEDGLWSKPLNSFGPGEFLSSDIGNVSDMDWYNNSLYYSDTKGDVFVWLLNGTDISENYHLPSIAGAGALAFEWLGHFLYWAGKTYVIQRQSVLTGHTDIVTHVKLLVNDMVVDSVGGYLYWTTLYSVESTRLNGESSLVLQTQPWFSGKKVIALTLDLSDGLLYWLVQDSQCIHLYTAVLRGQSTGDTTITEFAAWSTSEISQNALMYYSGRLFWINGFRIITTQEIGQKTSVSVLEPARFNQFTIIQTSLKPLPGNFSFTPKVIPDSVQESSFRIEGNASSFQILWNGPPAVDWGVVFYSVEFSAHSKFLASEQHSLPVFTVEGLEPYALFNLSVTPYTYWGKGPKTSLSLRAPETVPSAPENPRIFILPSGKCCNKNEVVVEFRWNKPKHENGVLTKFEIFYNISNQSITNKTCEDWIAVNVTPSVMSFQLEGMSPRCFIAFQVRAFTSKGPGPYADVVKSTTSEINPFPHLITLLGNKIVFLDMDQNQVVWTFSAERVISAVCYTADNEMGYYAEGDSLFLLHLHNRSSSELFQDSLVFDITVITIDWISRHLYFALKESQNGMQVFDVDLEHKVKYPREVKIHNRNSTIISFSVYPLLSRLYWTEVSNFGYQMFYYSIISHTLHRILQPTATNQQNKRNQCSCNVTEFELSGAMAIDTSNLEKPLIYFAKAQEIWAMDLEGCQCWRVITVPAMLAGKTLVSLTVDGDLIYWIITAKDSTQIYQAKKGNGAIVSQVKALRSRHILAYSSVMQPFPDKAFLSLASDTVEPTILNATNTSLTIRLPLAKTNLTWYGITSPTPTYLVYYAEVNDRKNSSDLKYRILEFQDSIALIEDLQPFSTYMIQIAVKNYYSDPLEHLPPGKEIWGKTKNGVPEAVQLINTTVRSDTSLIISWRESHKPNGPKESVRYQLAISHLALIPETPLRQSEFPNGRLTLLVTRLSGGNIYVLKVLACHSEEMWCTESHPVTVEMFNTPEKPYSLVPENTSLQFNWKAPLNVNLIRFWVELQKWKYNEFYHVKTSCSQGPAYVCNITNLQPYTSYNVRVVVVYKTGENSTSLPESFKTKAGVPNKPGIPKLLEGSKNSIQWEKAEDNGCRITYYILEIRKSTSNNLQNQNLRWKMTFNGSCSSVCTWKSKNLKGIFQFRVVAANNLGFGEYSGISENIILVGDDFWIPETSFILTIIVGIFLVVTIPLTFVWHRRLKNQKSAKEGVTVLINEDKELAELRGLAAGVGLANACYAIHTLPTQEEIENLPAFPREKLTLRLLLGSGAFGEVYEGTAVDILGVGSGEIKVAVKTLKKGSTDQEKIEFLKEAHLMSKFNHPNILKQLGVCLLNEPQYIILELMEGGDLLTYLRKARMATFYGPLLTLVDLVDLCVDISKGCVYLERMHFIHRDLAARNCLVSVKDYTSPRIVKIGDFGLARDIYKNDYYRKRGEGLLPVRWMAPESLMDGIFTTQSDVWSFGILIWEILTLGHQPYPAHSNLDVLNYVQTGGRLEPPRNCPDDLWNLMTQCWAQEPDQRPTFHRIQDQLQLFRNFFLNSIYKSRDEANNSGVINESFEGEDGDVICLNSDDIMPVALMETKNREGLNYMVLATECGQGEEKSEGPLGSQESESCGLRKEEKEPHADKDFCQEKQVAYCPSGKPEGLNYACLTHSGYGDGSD
Assay summary: Ba/F3-Ros1 cell proliferation assay, wild-type Ros1
Format: cell-based, murine
Applied conditions: without IL-3
// response body must contain only the number

Example results:
>>> quantitative_result("CC(C)c1ccc(COc2ccc(-c3c(-c4ccncc4)nn4c3C(=O)N(CC3COC(C)(C)O3)CC4)cc2)cc1 (stereo not shown)")
6.7
>>> quantitative_result("CC(C)c1cc(F)c(COc2ccc(-c3c(-c4ccncc4)nn4c3C(=O)N(CC(O)CO)CC4)cc2)cc1F (stereo not shown) [Compound 98]")
6.8
>>> quantitative_result("CC(C)c1ccc(COc2ccc(-c3c(-c4ccncc4)nn4c3CN(CC(=O)NCCO)CC4)cc2)cc1")
6.9

Record summary for `CC(C)c1ccc(COc2ccc(-c3c(-c4ccncc4)nn4c3C(=O)N(CCO)CC4)cc2)cc1O` : reported BaF3-ROS1-IL3 pIC50 = 7.8

Record summary for `O=C1c2c(-c3ccc(OCc4ccc(C5CC5)nc4)cc3)c(-c3ccncc3)nn2CCN1CCO` : reported BaF3-ROS1-IL3 pIC50 = 6.8

Record summary for CC(C)c1ccc(COc2ccc(-c3c(-c4ccncc4)nn4c3C(=O)N(C(C)CO)CC4)cc2)cc1 (single isomer, unassigned) [Compound 38] : reported BaF3-ROS1-IL3 pIC50 = 7.9

Record summary for `CC(C)c1ccc(COc2ccc(-c3c(-c4ccncc4)nn4c3CN(CC(=O)N3CCCC3)CC4)cc2)cc1` : reported BaF3-ROS1-IL3 pIC50 = 6.4

###

Study target: Ba/F3 cells containing Ros1 wild-type protein (Homo sapiens, UniProt P08922, cells depend on it, form not given)
Construct: The background only speaks of 'a number of different unrelated proteins' and names SLC34A2-ROS1 for HCC78 cells
Assay summary: Ba/F3-Ros1 cell proliferation assay, wild-type Ros1
Assay type: cell-based, murine
Applied conditions: without IL-3
Endpoint: BaF3-ROS1-IL3 pIC50
// response body must contain only the number

>>> quantitative_result("COCCN1CCn2nc(-c3ccncc3)c(-c3ccc(OCc4ccc(C(C)C)cc4)cc3)c2C1=O")
7.1
>>> quantitative_result("CC(C)c1ccc(COc2ccc(-c3c(-c4ccncn4)nn4c3CNCC4)cc2)cc1")
6.0
>>> quantitative_result("CC(C)c1ccc(COc2ccc(-c3c(-c4ccncn4)nn4c3C(=O)N(CC3(C)COC3)CC4)cc2)cc1")
7.1
>>> quantitative_result("COCCOc1cc(COc2ccc(-c3c(-c4ccncc4)nn4c3C(=O)NCC4)cc2)ccc1C")
6.1
>>> quantitative_result("CC(C)c1cc(F)c(COc2ccc(-c3c(-c4ccncc4)nn4c3C(=O)N(CC(O)CO)CC4)cc2)c(F)c1 (stereo not shown) [Compound 96]")
6.9

Record summary for `CC(C)(C#N)c1ccc(COc2ccc(-c3c(-c4ccncc4)nn4c3C(=O)N(CCO)CC4)cc2)cc1` : reported BaF3-ROS1-IL3 pIC50 = 6.9

Record summary for `CC(C)c1ccc(COc2ccc(-c3c(-c4ccncc4)nn4c3C(=O)N(CCO)CC4)cc2)cn1` : reported BaF3-ROS1-IL3 pIC50 = 7.3

Record summary for `CC(C)c1ccc(COc2ccc(-c3c(-c4ccncc4)nn4c3C(=O)NCC4)cc2)cc1` : reported BaF3-ROS1-IL3 pIC50 = 7.6

Record summary for `CC(C)c1ccc(COc2ccc(-c3c(-c4ccncc4)nn4c3CNC(=O)C4)cc2)cc1` : reported BaF3-ROS1-IL3 pIC50 = 6.8

Record summary for CCC(C)c1ccc(COc2ccc(-c3c(-c4ccncc4)nn4c3C(=O)NCC4)cc2)cc1 (stereo not shown) : reported BaF3-ROS1-IL3 pIC50 = 7.5

Record summary for `CC(C)c1ccc(COc2ccc(-c3c(-c4ccncc4)nn4c3C(=O)N(CCO)CC4)cn2)cc1` : reported BaF3-ROS1-IL3 pIC50 = 7.3

Record summary for `CC(C)c1ccc(COc2ccc(-c3c(-c4ccncn4)nn4c3C(=O)N(CCN)CC4)cc2)cc1` : reported BaF3-ROS1-IL3 pIC50 = 6.7

Record summary for CC(C)c1ccc(COc2ccc(-c3c(-c4ccncc4)nn4c3C(=O)N(CC(O)CO)CC4)c(F)c2)cc1 (stereo not shown) [Compound 22] : reported BaF3-ROS1-IL3 pIC50 = 7.8

Record summary for `O=C1c2c(-c3ccc(OCc4ccc(OC(F)(F)F)cc4)cc3)c(-c3ccncc3)nn2CCN1CCO` : reported BaF3-ROS1-IL3 pIC50 = 7.0

Record summary for `CC(C)c1ccc(COC2CCN(c3c(-c4ccncc4)nn4c3C(=O)N(C)CC4)CC2)cc1` : reported BaF3-ROS1-IL3 pIC50 = 7.0

Record summary for `CNCCN1CCn2nc(-c3ccncc3)c(-c3ccc(OCc4ccc(C(C)C)cc4)cc3)c2C1=O` : reported BaF3-ROS1-IL3 pIC50 = 6.6
